# Tested on: primary human T-cells
# experiment-description: T-cell proliferation assay (CellTiter-Glo)
# Type: cell-based
# condition-description: Homo sapiens, T-cell, 120 h; isomer A; CD3 antibody-stimulated T-cells, CellTiter-Glo after 5 days; read-out: Tcell Proliferation CD3 EC50
# Description: Expanded primary human T-cells are thawed and cultured in RPMI 1640 (Gibco, #61870-010)+5% human serum (HS, Sigma, #H3667)+1 mM Sodium Pyruvate (Gibco, #11360-039)+50 μM 2-mercaptoethanol (Gibco, #31350-010) and 1× Pen-Strep (Life Technologies, #15140122) medium at density of 2 Mio/ml for 3 hours in 5% CO2, 37° C. and 95% humidity. […]

compound: COCCN1CC(c2nnc(-c3cc4c(cc3F)C(F)(F)C[C@@H](N)C(=O)N4Cc3ccc(-c4ccc(C(F)(F)F)cn4)cc3)o2)CC(F)(F)C1 (single isomer, unassigned) [Example 34]
EC50 / µM: 1.22
--
compound: CC(C)(C)c1nnc(-c2cc3c(cc2F)C(F)(F)C[C@@H](N)C(=O)N3Cc2ccc(OC3CCCC3)cc2)o1 (single isomer, unassigned) [Example 7]
EC50 / µM: 0.127
--
compound: CC(C)(C#N)c1nnc(-c2cc3c(cc2F)C(F)(F)C[C@@H](N)C(=O)N3Cc2ccc(Oc3ccccc3)cc2)o1 (single isomer, unassigned) [Example 11]
EC50 / µM: 0.193
--
compound: CC(C)(C)c1nnc(-c2cc3c(cc2F)C(F)(F)CC(N)C(=O)N3Cc2ccc(OC(F)(F)F)cc2)o1 (stereo not drawn) [Example 1]
EC50 / µM: 2.59
--
compound: COC(F)(c1nnc(-c2cc3c(cc2F)C(F)(F)C[C@H](N)C(=O)N3Cc2ccc(OC(F)(F)F)cc2)o1)C(F)(F)F (single isomer, unassigned) [Example 4]
EC50 / µM: 0.14
--
compound: CC(C)(C#N)c1nnc(-c2cc3c(cc2F)C(F)(F)C[C@@H](N)C(=O)N3Cc2ccc(-n3nnc(C(F)(F)F)n3)cc2)o1 (single isomer, unassigned) [Example 20]
EC50 / µM: 0.205
--
compound: CC(C)(C#N)c1nnc(-c2cc3c(cc2F)C(F)(F)CC(N)C(=O)N3Cc2ccc(-n3cc(C(F)(F)F)cn3)cc2)o1 (racemic) [Example 33]
EC50 / µM: 0.0988
--
compound: CC(C)(C#N)c1nnc(-c2cc3c(cc2F)C(F)(F)C[C@@H](N)C(=O)N3Cc2ccc(-c3ncc(C(F)(F)F)cc3F)cc2)o1 (single isomer, unassigned) [Example 19]
EC50 / µM: 0.984
--
compound: CC(F)(F)c1ccc(-c2ccc(CN3C(=O)[C@H](N)CC(F)(F)c4cc(F)c(-c5nnc(C(C)(C)C#N)o5)cc43)cc2)nc1 (single isomer, unassigned) [Example 37]
EC50 / µM: 0.215
--
compound: CC(C)(C)c1cncc(-c2cc3c(cc2F)C(F)(F)C[C@@H](N)C(=O)N3Cc2ccc(Cl)cc2)c1 (single isomer, unassigned) [Example 18]
EC50 / µM: 0.666
--
compound: CC(C)(C#N)c1nnc(-c2cc3c(cc2F)C(F)(F)C[C@@H](N)C(=O)N3Cc2ccc(-c3ccc(C(F)(F)F)cc3)nc2)o1 (single isomer, unassigned) [Example 28]
EC50 / µM: 0.978
--
compound: COC(=O)N1CC2CC(c3nnc(-c4cc5c(cc4F)C(F)(F)C[C@@H](N)C(=O)N5Cc4ccc(-c5ccc(C(F)(F)F)cn5)cc4)o3)(C2)C1 (single isomer, unassigned) [Example 35]
EC50 / µM: 0.124
--
compound: CC(C)(C#N)c1nnc(-c2cc3c(cc2F)C(F)(F)C[C@@H](N)C(=O)N3Cc2ccc(-c3ccc(OC(F)(F)F)cn3)cc2)o1 (single isomer, unassigned) [Example 24]
EC50 / µM: 0.161
--
compound: CC(C)(c1nnc(-c2cc3c(cc2F)C(F)(F)C[C@@H](N)C(=O)N3Cc2ccc(-c3noc(C(F)(F)F)n3)cc2)o1)S(C)(=O)=O (single isomer, unassigned) [Example 16]
EC50 / µM: 0.296
--
compound: N[C@@H]1CC(F)(F)c2cc(F)c(-c3nnc(N4CCCC4)o3)cc2N(Cc2ccc(-c3noc(C(F)(F)F)n3)cc2)C1=O (single isomer, unassigned) [Example 14]
EC50 / µM: 0.593
--
compound: COC(=O)N1CC2CC(c3nnc(-c4cc5c(cc4F)C(F)(F)CC(N)C(=O)N5Cc4ccc(-c5noc(C(F)(F)F)n5)cc4)o3)(C2)C1 (single isomer, unassigned) [Example 42]
EC50 / µM: 1.26
--
compound: CC(C)(C#N)c1nnc(-c2cc3c(cc2F)C(F)(F)C[C@@H](N)C(=O)N3Cc2ccc(-n3cc(OC(F)(F)F)cn3)cc2)o1 (single isomer, unassigned) [Example 43]
EC50 / µM: 0.0234
--
compound: CC(C)(c1nnc(-c2cc3c(cc2F)C(F)(F)C[C@@H](N)C(=O)N3Cc2ccc(-n3cc(C(F)(F)F)cn3)cc2)o1)S(C)(=O)=O (single isomer, unassigned) [Example 29]
EC50 / µM: 0.0917
--
compound: CC(C)(C#N)c1nnc(-c2cc3c(cc2F)C(F)(F)C[C@@H](N)C(=O)N3Cc2ccc(-c3cc(C(F)(F)F)ccn3)cc2)o1 (single isomer, unassigned) [Example 27]
EC50 / µM: 0.599
--
compound: CC(C)(C#N)c1nnc(-c2cc3c(cc2F)C(F)(F)C[C@@H](N)C(=O)N3Cc2ccc(-n3ccc(C(F)(F)F)n3)cc2)o1 (single isomer, unassigned) [Example 30]
EC50 / µM: 0.589
--
compound: N[C@@H]1CC(F)(F)c2cc(F)c(-c3nnc(N4CCC(F)(F)C4)o3)cc2N(Cc2ccc(-n3cnc(C(F)(F)F)n3)cc2)C1=O (single isomer, unassigned) [Example 22]
EC50 / µM: 2.11

The reported measurements were obtained from patent US20250236614A1.
